Tested on: H460 cells
PROTOCOL DESCRIPTION: Cell proliferation assay (MTT)
Format: cell-based, human
EXPERIMENTAL CONDITIONS: Homo sapiens, NCI-H460, combinations: pre-treated with ceramidase inhibitor for three hours, then ChoK inhibitor, read-out: IC50 (72 h)
OBSERVATION TYPE: IC 50

Q: Can you look up the measured IC 50 of CCCCCCCCCCCCCC(=O)N[C@H](CO)[C@H](O)c1ccc([N+](=O)[O-])cc1 [CAY, reference compound] for me?
Ans: 28 µM

====

System: primary cultures of tumours of patients with NSCLC
PROTOCOL DESCRIPTION: Primary cultures of NSCLC tumours, crystal violet quantification
Type: cell-based, human
EXPERIMENTAL CONDITIONS: primary NSCLC tumour cultures, 0-20 μM, 10 days
compounds and their reported RESISTANT (number of samples)
Would you mind answering with just the numeric figure?

Would you please look over these solved cases?
Q: Can you look up the measured RESISTANT (number of samples) of CC(=O)O[C@H]1C(=O)[C@@]2(C)[C@H]([C@H](OC(=O)c3ccccc3)[C@]3(O)C[C@H](OC(=O)[C@H](O)[C@@H](NC(=O)c4ccccc4)c4ccccc4)C(C)=C1C3(C)C)[C@]1(OC(C)=O)CO[C@@H]1C[C@@H]2O for me?
Ans: 35

Q: Can you look up the measured RESISTANT (number of samples) of Nc1ccn([C@@H]2O[C@H](CO)[C@@H](O)C2(F)F)c(=O)n1 for me?
Ans: 34

Q: Can you look up the measured RESISTANT (number of samples) of CN(C)c1cc[n+](Cc2ccc(CCCCc3ccc(C[n+]4ccc(N(C)C)cc4)cc3)cc2)cc1 [MN58b] for me?
Ans: 28

Q: Can you look up the measured RESISTANT (number of samples) of N.N.[Cl][Pt][Cl] [Cisplatin, cisplatin, reference compound] for me?
Ans: 31

Alright, here's another compound for you.
Q: Can you look up the measured RESISTANT (number of samples) of CCC1=C[C@@H]2CN(C1)Cc1c([nH]c3ccccc13)[C@@](C(=O)OC)(c1cc3c(cc1OC)N(C)[C@H]1[C@@](O)(C(=O)OC)[C@H](OC(C)=O)[C@]4(CC)C=CCN5CC[C@]31[C@@H]54)C2 for me?
Ans: 24

====

Test system: primary cultures of tumours of patients with NSCLC
PROTOCOL DESCRIPTION: Primary cultures of NSCLC tumours, crystal violet quantification
Type: cell-based, human
EXPERIMENTAL CONDITIONS: primary NSCLC tumour cultures, 0-20 μM, 10 days
Simple rule here: SENSITIVES (number of samples) less than 30 is yes (1), otherwise no (0).

Q: State whether 30 exceeds SENSITIVES (number of samples) recorded for CCC1=C[C@@H]2CN(C1)Cc1c([nH]c3ccccc13)[C@@](C(=O)OC)(c1cc3c(cc1OC)N(C)[C@H]1[C@@](O)(C(=O)OC)[C@H](OC(C)=O)[C@]4(CC)C=CCN5CC[C@]31[C@@H]54)C2 .
Ans: yes (1)

Q: State whether 30 exceeds SENSITIVES (number of samples) recorded for CC(=O)O[C@H]1C(=O)[C@@]2(C)[C@H]([C@H](OC(=O)c3ccccc3)[C@]3(O)C[C@H](OC(=O)[C@H](O)[C@@H](NC(=O)c4ccccc4)c4ccccc4)C(C)=C1C3(C)C)[C@]1(OC(C)=O)CO[C@@H]1C[C@@H]2O .
Ans: yes (1)

Q: State whether 30 exceeds SENSITIVES (number of samples) recorded for Nc1ccn([C@@H]2O[C@H](CO)[C@@H](O)C2(F)F)c(=O)n1 .
Ans: yes (1)

Q: State whether 30 exceeds SENSITIVES (number of samples) recorded for N.N.[Cl][Pt][Cl] [Cisplatin, cisplatin, reference compound] .
Ans: no (0)

Q: State whether 30 exceeds SENSITIVES (number of samples) recorded for CN(C)c1cc[n+](Cc2ccc(CCCCc3ccc(C[n+]4ccc(N(C)C)cc4)cc3)cc2)cc1 [MN58b] .
Ans: no (0)
